assay: High Content Assay for Compounds that inhibit the Assembly of the Perinucleolar Compartment; details: PC3M PTB-GFP, PNC prevalence imaging, 16 h; at 10 µM; hits give low values;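 also: plate controls were DMSO wells for no effect and camptothecin positive control wells for full effect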
In all, about 140,000 compounds went through this assay and about 4,300 (3.1%) were called active. Another 21% or so got no clear call; they are omitted. What follows is part of a selection rich in actives, with near analogues and random picks from the rest.
METRIC_NAME: activity change (PNC), negative = inhibition (%)
The reply should be a number in %, with the unit left off.

- STRUCTURE_AS_SMILES: "CC(=O)c1ccc(OCCN2CCOCC2)cc1"
  OBSERVED_VALUE: 20.1
- STRUCTURE_AS_SMILES: "COC(=O)c1c(NC(=O)c2cccs2)sc2c1CCCC2"
  OBSERVED_VALUE: -6.02
- STRUCTURE_AS_SMILES: "Cc1ccccc1Nc1nc(N)nc(CSc2ccccc2)n1"
  OBSERVED_VALUE: -3.06

Attention now turns to another entry.
GET /value?item= Cc1cc(C(=O)OCC(=O)Nc2nnc(C(C)C)s2)c2ccccc2n1 &field=activity change (PNC), negative = inhibition returns 3.82

* * *

experiment: High Content Assay for Compounds that inhibit the Assembly of the Perinucleolar Compartment; settings: PC3M PTB-GFP, PNC prevalence imaging, 16 h; at 10 µM;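 also: plate controls were DMSO wells for no effect and camptothecin positive control wells for full effect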
Hit rate of the full screen: of about 140,000 compounds, about 4,300 (3.1%) were called active. About 21% were inconclusive and are not listed.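 Rule for the calls: active = readout at or below -70, meaning at least 70% loss of cells showing the perinucleolar compartment, a nuclear body marking cancer cells; inconclusive = readout between -30 and a set limit; inactive = the rest.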 Only a selection was taken, and actives are over-represented in it overall.
Lab note: assign the record to one of active, inactive

Look over these answered cases.
- COMPOUND: "CC1(C)C2CC=C(/C=N/NC(=O)c3ccc(Cl)cc3)C1C2 (centres undefined)"
  ASSIGNED_LABEL: "inactive"
- COMPOUND: "CCCCN(CC)C(=O)c1ccc2c(c1)OCO2"
  ASSIGNED_LABEL: "inactive"
- COMPOUND: "COc1ccc(S(=O)(=O)Nc2ccc3oc(C)c(C(C)=O)c3c2)cc1"
  ASSIGNED_LABEL: "inactive"
- COMPOUND: "CCCCCCCCCOC1OC(CO)C(O)C(O)C1NC(C)=O (centres undefined)"
  ASSIGNED_LABEL: "inactive"

Hello, I am checking results. What call was entered for Cc1nn(-c2ccccc2)c(C)c1/C=C/C(=O)OC(C)C(N)=O (centres undefined) ?
inactive

Hello, I am checking results. What call was entered for COc1ccc(NC(=O)c2ccc(OC)cc2)cc1 ?
inactive

Hello, I am checking results. What call was entered for COc1ccccc1C(=O)Nn1c(-c2cccs2)nc2ccccc2c1=O ?
inactive

Hello, I am checking results. What call was entered for COc1cc(NS(=O)(=O)c2ccc(N/C=C(\C=O)c3nc4cc(Cl)ccc4o3)cc2)nc(OC)n1 ?
active

Hello, I am checking results. What call was entered for CN1CCCC(OC(=O)COc2ccc(Br)cc2)C1 (centres undefined) ?
active

Hello, I am checking results. What call was entered for CO/N=C/c1ccc(N2CCN(C(=O)c3cccc(Cl)c3)CC2)c([N+](=O)[O-])c1 ?
inactive

Hello, I am checking results. What call was entered for O=C(CSc1nnc(Nc2ccccc2)s1)Nc1cccnc1Cl ?
inactive

Hello, I am checking results. What call was entered for CC(=O)Nc1ccc(C(=O)OCC(=O)Nc2ccc([N+](=O)[O-])cc2C(F)(F)F)cc1 ?
inactive

Hello, I am checking results. What call was entered for O=C(O)Cc1ccc(NC(=O)c2cccs2)cc1 ?
inactive

Hello, I am checking results. What call was entered for CCOc1ccc2nc(NC(=O)c3cc([N+](=O)[O-])ccc3N3CCOCC3)sc2c1 ?
active
